System under test: human ether-à-go-go-related gene (hERG) potassium channel (human)
Experiment summary: primary screen, population patch clamp on CHO cells stably expressing hERG; higher = less effect of the substance
Out of some 310,000 compounds screened, about 14,000 (4.5%) showed an effect of 50% or more. Effects have a minus sign here. The sample as a whole holds a higher share of strong results than the screen did.
Measured hERG current change (%, negative = inhibition) at 10uM determines class: bucket 1 (below -40%), bucket 2 (-40% to below -20%), bucket 3 (-20% or more)

# input Could you place CCOC(=O)C1(CC2CC2)CCN(Cc2cnc(-c3ccc(OC)cc3)nc2)CC1 in its proper category? Many thanks.
# output bucket 2

# input Tag the class for CC(C)N(CCn1c(SCC(=O)Nc2cccnc2Cl)nc2ccccc2c1=O)C(C)C
# output bucket 1

# input Record CC(C(=O)Nc1ccccc1-c1ccccc1)N1CCOCC1 (centres unmarked) — which class?
# output bucket 3

# input For CC(=O)NCCn1c(SCc2ccc(C)cc2)nc2ccccc2c1=O , which hERG current change (%, negative = inhibition) at 10uM bin applies?
# output bucket 2

# input State the band of Cc1ccc(C(CC(=O)N2CCCC2)c2ccccc2)c(O)c1C (centres unmarked)
# output bucket 1

# input Which hERG current change (%, negative = inhibition) at 10uM band matches CCOC(=O)C1(CC2CC2)CCN(Cc2ccc(OC)cc2F)CC1 ?
# output bucket 1

# input Please let me know in which category the item CC(=O)NCCn1c(SCC(=O)c2ccccc2)nc2ccccc2c1=O belongs.
# output bucket 2

# input For COCCn1c(SCC(=O)Nc2cccnc2Cl)nc2ccccc2c1=O , which hERG current change (%, negative = inhibition) at 10uM bin applies?
# output bucket 3

# input Classify this compound: CC(=O)NCCn1c(SCC(=O)OCc2ccccc2)nc2ccccc2c1=O
# output bucket 1

# input # bin lookup: classify CCOC(=O)C1(CC2CCCCO2)CCN(S(=O)(=O)c2ccc(C)s2)CC1 (centres unmarked) by its hERG current change (%, negative = inhibition) at 10uM
# output bucket 3

# input Assign a bin to Cc1cccc(C(CC(=O)N2CCCC2)c2ccccc2)c1O (centres unmarked)
# output bucket 3

# input Classify this compound: Cc1ccc(C(CC(=O)N2CCCC2)c2ccccc2)c(O)c1 (centres unmarked)
# output bucket 3

# input # classify by hERG current change (%, negative = inhibition) at 10uM band: CCOC(=O)C1(CC2CCCCO2)CCN(S(=O)(=O)c2ccc(OC)cc2)CC1 (centres unmarked)
# output bucket 2

# input For this compound, which bin applies? CC(C(=O)Nc1ccccc1-c1ccccc1)N1CCN(C(=O)c2ccccc2)CC1 (centres unmarked)
# output bucket 1

# input Band for Cc1ccc(C(CC(=O)N2CCCCC2)c2ccccc2)c(O)c1C (centres unmarked) ?
# output bucket 2

# input Please report the category associated with CC(C(=O)NC1CCCC1)N1CCN(Cc2ccccc2)CC1 (centres unmarked) , nothing else.
# output bucket 3

# input Please classify: COCCn1c(SCC(=O)Nc2cccnc2Cl)nc2cc(Cl)ccc2c1=O
# output bucket 2

# input Just checking, what class would you give CC(C(=O)Nc1ccccc1-c1ccccc1)N1CCN(S(=O)(=O)c2ccccc2)CC1 (centres unmarked) here?
# output bucket 3

# input Assign a category based on measured hERG current change (%, negative = inhibition) at 10uM for CC1CCN(C(C)C(=O)Nc2ccccc2-c2ccccc2)CC1.O=C(O)C(=O)O (centres unmarked) and give only the class name.
# output bucket 3

# input Just checking, what class would you give Cc1ccc(C(CC(=O)N2CCNCC2)c2ccccc2)c(O)c1C (centres unmarked) here?
# output bucket 1

* * *

System under test: human ether-à-go-go-related gene (hERG) potassium channel (human, UniProt Q12809)
Sequence (Q12809 whole entry, looked up): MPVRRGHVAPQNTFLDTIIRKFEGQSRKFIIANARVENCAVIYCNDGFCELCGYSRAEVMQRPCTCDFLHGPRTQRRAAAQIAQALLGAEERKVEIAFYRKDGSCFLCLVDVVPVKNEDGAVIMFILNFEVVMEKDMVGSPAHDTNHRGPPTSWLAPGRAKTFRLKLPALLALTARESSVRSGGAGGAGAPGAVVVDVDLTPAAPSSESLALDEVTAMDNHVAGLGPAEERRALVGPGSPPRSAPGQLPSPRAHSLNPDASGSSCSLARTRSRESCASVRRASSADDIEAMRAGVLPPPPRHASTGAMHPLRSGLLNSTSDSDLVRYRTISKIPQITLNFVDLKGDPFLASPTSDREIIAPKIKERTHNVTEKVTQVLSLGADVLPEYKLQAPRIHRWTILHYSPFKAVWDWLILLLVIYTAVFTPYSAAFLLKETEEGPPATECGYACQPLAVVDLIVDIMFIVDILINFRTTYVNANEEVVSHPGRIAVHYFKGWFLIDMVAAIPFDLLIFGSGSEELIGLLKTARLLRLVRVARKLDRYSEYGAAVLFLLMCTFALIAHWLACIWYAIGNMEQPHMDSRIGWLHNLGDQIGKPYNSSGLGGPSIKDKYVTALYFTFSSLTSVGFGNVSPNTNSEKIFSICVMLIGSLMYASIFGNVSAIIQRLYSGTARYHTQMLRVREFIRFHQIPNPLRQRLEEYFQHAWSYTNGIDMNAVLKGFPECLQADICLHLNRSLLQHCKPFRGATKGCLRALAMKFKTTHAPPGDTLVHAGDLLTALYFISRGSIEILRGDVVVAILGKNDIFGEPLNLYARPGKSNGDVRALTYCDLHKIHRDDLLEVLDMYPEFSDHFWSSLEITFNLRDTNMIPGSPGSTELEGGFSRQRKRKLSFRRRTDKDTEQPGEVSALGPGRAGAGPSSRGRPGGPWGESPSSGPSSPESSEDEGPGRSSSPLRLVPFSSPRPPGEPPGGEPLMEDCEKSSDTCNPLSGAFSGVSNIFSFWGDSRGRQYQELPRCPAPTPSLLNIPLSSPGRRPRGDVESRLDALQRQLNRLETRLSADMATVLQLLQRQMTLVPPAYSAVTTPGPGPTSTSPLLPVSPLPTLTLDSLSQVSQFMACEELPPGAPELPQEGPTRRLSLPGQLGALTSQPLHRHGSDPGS
Experiment summary: primary screen, population patch clamp on CHO cells stably expressing hERG; higher = less effect of the substance
About 14,000 (4.5%) of roughly 310,000 compounds showed an effect of 50% or more. The effect is printed as a negative number. For the sample, strong results were picked, then their nearest neighbours and some compounds at random.
Endpoint label: hERG current change (%, negative = inhibition) at 10uM (%)
Give the number; % is assumed, so skip it.

# input Please give the measured hERG current change (%, negative = inhibition) at 10uM for this molecule: COc1cc(C(=S)N2CCCC2)ccc1OCC(N)=O
# output 17.8

# input I have this molecule here, F[B-](F)(F)F.OCC[NH+]=c1cc(-c2ccccc2)oc2ccc(Cl)cc12 , and I need its recorded hERG current change (%, negative = inhibition) at 10uM.
# output -71.3

# input Data request, read-out hERG current change (%, negative = inhibition) at 10uM, for CCOC(=O)C1(CC2CCCCO2)CCN(S(=O)(=O)c2ccccc2)CC1 (stereo not drawn)
# output 9.64

# input // returns reported hERG current change (%, negative = inhibition) at 10uM for input CC(Oc1ccc(F)cc1)C(=O)NN (stereo not drawn)
# output 18.6

# input Which hERG current change (%, negative = inhibition) at 10uM value belongs to Cc1ccc(Nc2nc(N)nc(CN3CCc4ccccc4C3)n2)cc1 ?
# output -72.2

# input Query (molecule): Cc1ccc(Nc2nc(N)nc(CSc3nnnn3-c3ccccc3)n2)cc1 ; field requested: hERG current change (%, negative = inhibition) at 10uM
# output 4.49

# input What value of measured hERG current change (%, negative = inhibition) at 10uM is listed for CCn1c(SCC(=O)N=Nc2c(O)[nH]c3ccccc23)nnc1-c1ccc(C(C)(C)C)cc1 ?
# output -5.11

# input For CC1CN=C(NCc2ccc(F)cc2)S1 (stereo not drawn) , what is its reported hERG current change (%, negative = inhibition) at 10uM?
# output -8.5

# input Endpoint output: hERG current change (%, negative = inhibition) at 10uM of Nc1nc(CSc2ncccn2)nc(Nc2ccccc2)n1 . Value?
# output 1.55

# input Could you share which hERG current change (%, negative = inhibition) at 10uM value was measured for COc1ccc(S(=O)(=O)Cc2ccc(C(=O)N3CCN(c4ccccc4)CC3)o2)cc1 ?
# output -37.6

# input Query (molecule): CCOC(=O)C1(CC2CCCCO2)CCN(S(=O)(=O)c2cc(C)cs2)CC1 (stereo not drawn) ; field requested: hERG current change (%, negative = inhibition) at 10uM
# output -59

# input Field request: hERG current change (%, negative = inhibition) at 10uM | item: Cc1ccc(S(=O)(=O)N(CCCO)CC(O)CON=C2c3ccccc3-c3ccccc32)cc1 (stereo not drawn)
# output 14.4

# input Which hERG current change (%, negative = inhibition) at 10uM reading was recorded for the molecule F[B-](F)(F)F.OCCCCC[NH+]=c1cc(-c2ccccc2)oc2ccc(Cl)cc12 ?
# output -80.3

# input Tell me the measured hERG current change (%, negative = inhibition) at 10uM of Cc1ccc(Nc2nc(N)nc(CSc3ncccn3)n2)cc1 , please.
# output -18.7

# input # query: hERG current change (%, negative = inhibition) at 10uM of entry Nc1c(C(=O)CCC(=O)O)oc2ccc(Cl)cc12
# output -9.4

# input Endpoint output: hERG current change (%, negative = inhibition) at 10uM of O=c1cc(-c2ccccc2)oc2ccc(O)cc12 . Value?
# output -9.74

# input Consider the molecule OCCCNc1nc(-c2ccccc2)c2cc(Cl)ccc2n1 and give its measured hERG current change (%, negative = inhibition) at 10uM.
# output 3.04

# input Value lookup for hERG current change (%, negative = inhibition) at 10uM; key = F[B-](F)(F)F.OCCC[NH+]=c1cc(-c2ccccc2)oc2ccc(Cl)cc12
# output -79.1

# input What value of hERG current change (%, negative = inhibition) at 10uM has been reported for the following molecule? Cc1ccc(-n2c(C)c(C)c3c(NCCO)ncnc32)cc1
# output 6.27

# input Request the reported hERG current change (%, negative = inhibition) at 10uM associated with COc1ccc(Nc2nc(N)nc(CSC(=S)N3CCCCC3)n2)cc1
# output 0.179

# input Quick one: hERG current change (%, negative = inhibition) at 10uM for Cc1sc(-c2c(C#N)c(N)nc3c2CCCCCC3)cc1[N+](=O)[O-] ?
# output -4.1

* * *

System under test: human ether-à-go-go-related gene (hERG) potassium channel (human)
Experiment summary: primary screen, population patch clamp on CHO cells stably expressing hERG; higher = less effect of the substance
In all, about 310,000 compounds went through this assay and about 14,000 (4.5%) showed an effect of 50% or more. Effects have a minus sign here. For the sample, strong results were picked, then their nearest neighbours and some compounds at random.
Endpoint label: hERG current change (%, negative = inhibition) at 10uM (%)
Enter your answer as a number in %; do not include the unit.

# input # query: hERG current change (%, negative = inhibition) at 10uM | item COc1ccc(OC)c(NC(=O)C2CCN(c3cc(-c4ccccc4)nc4ncnn34)CC2)c1 | system: human ether-à-go-go-related gene (hERG) potassium channel (human)
# output -10.8

# input Write down the reported hERG current change (%, negative = inhibition) at 10uM of COc1cc2c(cc1OC)C(c1ccc(Br)cc1)N(C(=O)c1ccccc1C(=O)O)CC2 (centres unmarked) , test system: human ether-à-go-go-related gene (hERG) potassium channel (human).
# output 9.72

# input # returns recorded hERG current change (%, negative = inhibition) at 10uM (system: human ether-à-go-go-related gene (hERG) potassium channel (human)) for COc1ccc(Br)cc1/C=N/N1C(=O)CSC1=S
# output 17.3

# input Any idea what hERG current change (%, negative = inhibition) at 10uM came out for Cc1ccc(-c2nnc(N3CCCCC3)c3ccccc23)cc1S(=O)(=O)NCC1CCCO1 (centres unmarked) on human ether-à-go-go-related gene (hERG) potassium channel (human)?
# output -16

# input Provide the documented hERG current change (%, negative = inhibition) at 10uM with human ether-à-go-go-related gene (hERG) potassium channel (human) as the system for Cc1ccc(NC(=O)CSc2nnc(CNC(=O)c3cccs3)o2)c(C)c1
# output 6.79

# input Look up hERG current change (%, negative = inhibition) at 10uM with human ether-à-go-go-related gene (hERG) potassium channel (human) for this compound: c1ccc(-c2nnc(OCC3CCCO3)c3ccccc23)cc1 (centres unmarked)
# output -10.8

# input Request - read-out hERG current change (%, negative = inhibition) at 10uM | tested on human ether-à-go-go-related gene (hERG) potassium channel (human) | compound Cc1ccc(Oc2nnc(-c3ccc(C)cc3)c3ccccc23)cc1
# output 2.75

# input Test system human ether-à-go-go-related gene (hERG) potassium channel (human); read-out hERG current change (%, negative = inhibition) at 10uM; what value for COc1nnc(-c2ccc(C)c(S(N)(=O)=O)c2)c2ccccc12 ?
# output 4.8

# input Query hERG current change (%, negative = inhibition) at 10uM on human ether-à-go-go-related gene (hERG) potassium channel (human) for COc1ccccc1NC(=O)N1CCN(c2ncccn2)CC1
# output 6.96

# input Hello, I am looking for reported hERG current change (%, negative = inhibition) at 10uM with human ether-à-go-go-related gene (hERG) potassium channel (human) for O=C(Nc1ccccc1C(=O)NCC1CCCO1)c1ccc(Cl)cc1 (centres unmarked) . Could you help?
# output -34.8

# input Enter reported hERG current change (%, negative = inhibition) at 10uM observed with human ether-à-go-go-related gene (hERG) potassium channel (human) for Cc1ccc(-c2nnc(OCC3CCCO3)c3ccccc23)cc1 (centres unmarked)
# output -65.2

# input # get_value(readout= hERG current change (%, negative = inhibition) at 10uM, system= human ether-à-go-go-related gene (hERG) potassium channel (human)) for COc1ccccc1NC(=O)NCC(=O)Nc1c(C)cccc1C
# output 30.5

# input Provide value of hERG current change (%, negative = inhibition) at 10uM for this record tested with human ether-à-go-go-related gene (hERG) potassium channel (human): CCc1c(C)nc2ncnn2c1N1CCN(S(=O)(=O)c2ccc(OC)cc2)CC1
# output -36

# input # get_value(readout= hERG current change (%, negative = inhibition) at 10uM, system= human ether-à-go-go-related gene (hERG) potassium channel (human)) for COc1ccc(C(=O)Nc2cc(C)c3c(=O)oc4ccccc4c3n2)cc1
# output 7.49

# input So what hERG current change (%, negative = inhibition) at 10uM did COc1nnc(-c2ccc(C)c(S(=O)(=O)N(C)C)c2)c2ccccc12 get with human ether-à-go-go-related gene (hERG) potassium channel (human)?
# output -77.6

# input # query: hERG current change (%, negative = inhibition) at 10uM | item COc1nnc(-c2ccc(C)c(S(=O)(=O)NCCO)c2)c2ccccc12 | system: human ether-à-go-go-related gene (hERG) potassium channel (human)
# output -14.6

# input Form: Entry = COc1ccc(C)cc1NC(=O)c1nnn(Cc2cccc(F)c2)c1N | System = human ether-à-go-go-related gene (hERG) potassium channel (human) | hERG current change (%, negative = inhibition) at 10uM = ____;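 also: peak tail current of the secondary pulse compared with the same well before compound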
# output 7.11

# input # returns recorded hERG current change (%, negative = inhibition) at 10uM (system: human ether-à-go-go-related gene (hERG) potassium channel (human)) for CSc1ccccc1C(=O)NCCOc1cccc(C)c1;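 also: peak tail current of the secondary pulse compared with the same well before compound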
# output 17.7

# input Entry COc1ccc(S(=O)(=O)N2CCN(c3cc(-c4ccccc4)nc4ncnn34)CC2)cc1 , system human ether-à-go-go-related gene (hERG) potassium channel (human): what hERG current change (%, negative = inhibition) at 10uM was measured?;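 also: peak tail current of the secondary pulse compared with the same well before compound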
# output -53.3

# input // map COc1cc(NS(C)(=O)=O)c(OC)cc1NC(=O)c1ccccc1 to recorded hERG current change (%, negative = inhibition) at 10uM (system: human ether-à-go-go-related gene (hERG) potassium channel (human));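 also: peak tail current of the secondary pulse compared with the same well before compound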
# output -9.96
